target_under_test: T1, human SIRPα on cells (human, UniProt P78324 31-504)
T1 construct: whole, on cells; also called human SIRPα-CHO; Hu SIRPα-CHO-K1
assay_protocol: cell binding, Hu SIRPα-CHO-K1 cells, 100 nM antibody
Entries and their fold increase over background (100 nM) values follow.

binder	fold increase over background (100 nM) [fold]
SIRPAB-8 (antibody, human IgG1, kappa, V domains shown) VH: QVQLVQSGAEVKKPGASVKVSCKASGYTFTSYGISWVRQAPGQGLEWMGWISPYNGNTNYAQKLQGRVTMTTDTSTSTAYMELRSLRSDDTAVYYCAREAGSSWYDFDLWGRGTLVTVSS VL: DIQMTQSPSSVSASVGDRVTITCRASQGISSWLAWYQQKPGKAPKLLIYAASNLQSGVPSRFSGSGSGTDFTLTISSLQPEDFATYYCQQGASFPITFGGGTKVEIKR	1310
SIRPAB-10 (antibody, human IgG1, kappa, V domains shown) VH: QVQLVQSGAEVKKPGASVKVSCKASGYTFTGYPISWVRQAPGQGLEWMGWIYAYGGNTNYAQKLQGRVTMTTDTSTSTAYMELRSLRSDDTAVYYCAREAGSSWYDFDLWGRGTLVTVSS VL: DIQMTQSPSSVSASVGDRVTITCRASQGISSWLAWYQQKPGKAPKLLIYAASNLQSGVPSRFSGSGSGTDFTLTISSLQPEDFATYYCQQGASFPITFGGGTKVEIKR	1170
SIRPAB-7 (antibody, human IgG1, kappa, V domains shown) VH: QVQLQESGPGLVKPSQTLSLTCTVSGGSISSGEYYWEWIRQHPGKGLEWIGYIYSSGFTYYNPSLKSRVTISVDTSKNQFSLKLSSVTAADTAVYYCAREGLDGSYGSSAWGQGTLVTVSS VL: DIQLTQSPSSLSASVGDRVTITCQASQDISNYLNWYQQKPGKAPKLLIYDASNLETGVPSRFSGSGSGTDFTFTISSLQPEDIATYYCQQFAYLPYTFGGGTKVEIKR	2100
SIRPAB-9 (antibody, human IgG1, kappa, V domains shown) VH: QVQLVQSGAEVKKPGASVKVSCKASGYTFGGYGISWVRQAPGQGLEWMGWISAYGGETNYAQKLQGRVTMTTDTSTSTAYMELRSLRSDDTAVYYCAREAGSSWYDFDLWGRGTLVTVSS VL: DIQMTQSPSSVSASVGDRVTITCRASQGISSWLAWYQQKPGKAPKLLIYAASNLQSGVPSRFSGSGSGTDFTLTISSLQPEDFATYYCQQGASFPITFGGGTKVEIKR	2650
